Molecular target: Autotaxin (Homo sapiens, UniProt Q13822)
Assay: Inhibition of 6x-histidine-tagged human recombinant ATX expressed in HEK293 cells assessed as lysophosphatidulcholine release at 5 uM
Format: cell-based
PARAMETER MEASURED: inhibition (%)

a: COC(=O)c1cccc(CN2C(=O)S/C(=C\c3ccc(OCc4ccc(C(=O)O)cc4)c(OC)c3)C2=O)c1
b: COc1cc(/C=C2\SC(=O)N(Cc3ccccc3C#N)C2=O)ccc1OCc1ccc(C(=O)O)cc1
Could you kindly indicate whether a or b has the higher inhibition value? Indicate your choice by writing its label. a
(a: 30%, b: 17%)

I: COc1cc(/C=C2\SC(=O)N(Cc3ccccn3)C2=O)ccc1OCc1ccc(C(=O)O)cc1
II: COc1cc(/C=C2\SC(=O)N(Cc3ccc(Cl)cc3)C2=O)ccc1OCc1ccc(C(=O)O)cc1
Between the entries labeled I and II , whose measured inhibition is lower? Bench note: the answer is the label of the chosen record. I

====

Molecular target: Autotaxin (Homo sapiens, UniProt Q13822)
Test: Inhibition of 6x-histidine-tagged human recombinant ATX expressed in HEK293 cells assessed as lysophosphatidulcholine release at 5 uM
Assay type: cell-based
PARAMETER MEASURED: inhibition (%)

Below: 4 compounds and their reported inhibition.
I'd like to know its inhibition. The compound in question is COc1cc(/C=C2\SC(=O)N(CC(=O)c3ccc([N+](=O)[O-])cc3)C2=O)ccc1OCc1ccc(C(=O)O)cc1 17

Try the compound O=C1S/C(=C\c2ccc(OCc3ccc(B(O)O)cc3)cc2)C(=O)N1Cc1ccc(F)cc1 99

// next record COc1cc(/C=C2\SC(=O)N(CC(=O)c3ccc(Br)cc3)C2=O)ccc1OCc1ccc(C(=O)O)cc1 23

Now the compound O=C1S/C(=C\c2ccc(OCc3ccccc3B(O)O)cc2)C(=O)N1Cc1ccc(F)cc1 36

1: COC(=O)c1ccc(CN2C(=O)S/C(=C\c3ccc(OCc4ccc(C(=O)O)cc4)c(OC)c3)C2=O)cc1
2: O=C1S/C(=C\c2cccc(OCc3ccc(B(O)O)cc3)c2)C(=O)N1Cc1ccc(F)cc1
3: COc1cc(/C=C2\SC(=O)N(Cc3cccc(F)c3)C2=O)ccc1OCc1ccc(C(=O)O)cc1
4: COc1cc(/C=C2/SC(=O)N(Cc3c(F)c(F)c(F)c(F)c3F)C2=O)ccc1OCc1ccc(C(=O)O)cc1
Could you please sort these 4 entries by inhibition from high to low? # format: label list in the order the request specifies 2, 3, 1, 4
(2: 100%, 3: 64%, 1: 31%, 4: 10%)

====

Reported IC50 by item:
Biological target: Autotaxin (Homo sapiens)
Assay: Inhibition of 6x-histidine-tagged human recombinant ATX expressed in HEK293 cells assessed as lysophosphatidulcholine release
Format: cell-based

Field request: IC50 | item: COc1cc(/C=C2\SC(=O)N(Cc3ccc(F)cc3)C2=O)ccc1OCc1ccc(C(=O)O)cc1 2.5 µM

What about this compound? COc1cc(/C=C2\SC(=O)N(Cc3ccc([N+](=O)[O-])cc3)C2=O)ccc1OCc1ccc(C(=O)O)cc1 > 5 µM

Others:
What measured IC50 goes with O=C1S/C(=C\c2cccc(OCc3ccccc3B(O)O)c2)C(=O)N1Cc1ccc(F)cc1 ? > 5 µM

====

Target: Autotaxin (Homo sapiens, UniProt Q13822)
Experiment: Inhibition of 6x-histidine-tagged human recombinant ATX expressed in HEK293 cells at 5 uM by CPF assay
Format: cell-based
PARAMETER MEASURED: inhibition (%)

Sample records with inhibition:
Give its inhibition value. Item: O=C(CSc1nc2ccc(N3C(=O)c4ccccc4C3=O)cc2s1)Nc1cccc(Cl)c1 66

Next up: CCCCCCCC/C=C\CCCCCCCC(=O)OC[C@@H](O)COP(=O)(O)O 67

Would you kindly repeat that for CC(C)Cc1ccc(-c2n[nH]c3c2C(c2ccc(N(C)C)cc2)C(C#N)=C(N)O3)cc1 (configuration not stated) ? 77

Again, but for COc1cc(/C=C2\SC(=O)N(Cc3ccc(F)cc3)C2=O)ccc1OCc1ccc(C(=O)O)cc1 85

Lookup COc1cc(/C=C2\SC(=O)N(Cc3ccc(Cl)cc3)C2=O)ccc1OCc1ccncc1 85

P: CCOc1cc(/C=C2\SC(=O)N(Cc3ccccc3)C2=O)ccc1OCc1ccc(C(=O)O)cc1
Q: Cn1c(=O)n(C)c2cc(/C=C3\SC(=O)N(Cc4ccccc4)C3=O)ccc21
Identify the entry with the larger inhibition. Options: P and Q Answer format: the label of the selected item. P
(P: 89%, Q: 55%)
